The measured values listed here are drawn from patent US20230233569A1.

- Tested On: KRAS G12V (Homo sapiens, UniProt P01116+P62937, G12V)
- Sequence (P01116 1-169 isoform P01116-2 G12V limits assumed): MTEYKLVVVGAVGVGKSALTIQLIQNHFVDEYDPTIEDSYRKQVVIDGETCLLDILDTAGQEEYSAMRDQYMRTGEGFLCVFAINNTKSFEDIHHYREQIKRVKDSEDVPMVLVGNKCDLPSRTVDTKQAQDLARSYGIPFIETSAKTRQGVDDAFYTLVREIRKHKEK
- Sequence (P62937 whole entry): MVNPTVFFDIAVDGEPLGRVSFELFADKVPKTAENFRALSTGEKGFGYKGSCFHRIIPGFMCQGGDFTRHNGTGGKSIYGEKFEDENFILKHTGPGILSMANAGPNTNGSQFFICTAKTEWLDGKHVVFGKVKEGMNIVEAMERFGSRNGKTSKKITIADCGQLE
- Test Summary: Disruption of BRAF RBD interaction with Ras (FRET / MOA assay, with Cyclophilin A)
- Format: biochemical
- Protocol Conditions: KRAS G12V; read-out: KRAS G12V FRET data IC50
pIC50: −log10 of the molar value.
pIC50 values for the compounds below.

Some compounds with known pIC50 results, for comparison:
C=CC(=O)N1CCOC2(CCN(C(=O)N(C)[C@H](C(=O)N[C@H]3Cc4cc(CF)cc(c4)-c4ccc5c(c4)c(c(-c4cccnc4[C@H](C)OC)n5CC(F)(F)F)CC(C)(C)COC(=O)C4CCCN(N4)C3=O)C(C)C)CC2)C1 (stereo partly drawn)
6.00 to 7.00
C=CC(=O)N1CC2(CCN([C@H](C(=O)N[C@H]3Cc4cc(O)cc(c4)-c4ccc5c(c4)c(c(-c4ccccc4CCOC)n5CC)CC(C)(C)COC(=O)[C@@H]4CCCN(N4)C3=O)C(C)C)C2=O)C1
5.00 to 6.00
C=CC(=O)N1CCC(C(=O)N(C)[C@H](C(=O)N[C@H]2Cc3cc(O)cc(c3)-c3ccc4c(c3)c(c(-c3ccccc3CCOC)n4CC)CC(C)(C)COC(=O)[C@@H]3CCCN(N3)C2=O)C(C)C)CC1
< 5.00
C=CC(=O)N1CC[C@H](C(=O)N(C)[C@H](C(=O)N[C@H]2Cc3cc(O)cc(c3)-c3ccc4c(c3)c(c(-c3ccc(CC(=O)O)cc3)n4CC)CC(C)(C)COC(=O)[C@@H]3CCCN(N3)C2=O)C(C)C)C1
< 5.00

Next, consider the following compound.
Qu. Tell us which pIC50 value is on record for C=CC(=O)N1CC[C@H](C(=O)N(C)[C@H](C(=O)N[C@H]2Cc3cc(O)cc(c3)-c3ccc4c(c3)c(c(-c3cncnc3)n4CC)CC(C)(C)COC(=O)[C@@H]3CCCN(N3)C2=O)C(C)C)C1
Ans. 5.00 to 6.00
